Run description: Selectivity index, ratio of EC50 for cytotoxicity against human MRC5 cells to EC50 for antitrypanosomal activity against Trypanosoma brucei brucei
Type: toxicity, cell-based
Test conditions: read-out: Ratio EC50
Hi, to clarify the labels: Met covers selectivity ratio from 20 upward, Not met covers anything below 20.

Please check the record "CC(C)CCOc1ncnc2c1c(Cl)cn2[C@@H]1O[C@H](CO)[C@@H](O)[C@H]1O" and state if its selectivity ratio is at or above 20.
Met

Given "CCCCOc1ncnc2c1c(Cl)cn2[C@@H]1O[C@H](CO)[C@@H](O)[C@H]1O" , state whether its selectivity ratio is at least 20.
Not met

In plain terms: is recorded selectivity ratio at least 20 for "COc1nc(N)nc2c1c(Br)cn2[C@@H]1O[C@H](CO)[C@@H](O)[C@H]1O" ?
Met

Decide: is the reported value of selectivity ratio for "COc1ncnc2c1c(Br)cn2[C@@H]1O[C@H](CO)[C@@H](O)[C@H]1O" equal to or greater than 20?
Met

hey, is selectivity ratio for this one >= 20? "CCOc1ncnc2c1c(Cl)cn2[C@@H]1O[C@H](CO)[C@@H](O)[C@H]1O"
Met

Could you tell me if the measured selectivity ratio of "O=c1[nH]cnc2c1ccn2[C@@H]1O[C@H](CO)[C@@H](O)[C@H]1O" reaches 20 or more?
Not met

Hi team, for "OC[C@H]1O[C@@H](n2cc(Cl)c3c(OC4CCCC4)ncnc32)[C@H](O)[C@@H]1O" , is the recorded selectivity ratio at or above 20?
Met

Reported selectivity ratio reaches at least 20 for "OC[C@H]1O[C@@H](n2cc(Cl)c3c(OCCc4ccccc4)ncnc32)[C@H](O)[C@@H]1O" ?
Not met

Reported selectivity ratio reaches at least 20 for "OC[C@H]1O[C@@H](n2cc(C(F)(F)F)c3c(O)ncnc32)[C@H](O)[C@@H]1O" ?
Not met
